Target: Cytochrome P450 2C9 (Homo sapiens)
Experiment: blockers of cytochrome P450 2C9 activity – biochemical, luminescence, ADME assay, primary screen (AID 777)
Details: CYP2C9 Supersomes, luciferin-H conversion, at 5 µM, stronger effect = higher value
Among all 96,000 compounds or so, about 19,000 (20%) were called active. A selection follows.
I would appreciate it if you labelled entries t when inhibition is 10% or higher, otherwise f.

# check: inhibition of COc1ccc(F)cc1S(=O)(=O)Nc1ccc2c(c1)OCO2 is greater than or equal to 10% t

Hi team, for Cc1nnc(SCc2nc3ccccc3nc2C)s1 , is the recorded inhibition at or above 10%? f

Does the reported inhibition for COc1ccc(S(=O)(=O)Nc2ccc(S(=O)(=O)N3CCCCC3)cc2)cc1OC fall at or above the 10% mark? t

Form field: inhibition at least 10%? Entry: Cc1c(C(=O)Nc2ccccc2Cl)oc2ccc(S(=O)(=O)N3CCC4(CC3)OCCO4)cc12 t

Given O=C(Cn1cnc2c(cnn2-c2ccccc2)c1=O)NCc1ccccc1 , state whether its inhibition is at least 10%. f

# check: inhibition of O=C(c1ccco1)N1CCN(C(=O)c2ccc(COc3ccc(F)cc3)o2)CC1 is greater than or equal to 10% t

// inclusive: inhibition at least 10%? input: COc1ccc(C2=NOC3(CC(=O)N(c4ccc(C)cc4)C3=O)C2)cc1 (stereo unspecified) t

Reported inhibition reaches at least 10% for CC(C)CNS(=O)(=O)c1ccc(OCC(=O)Nc2ccc3c(c2)OCO3)c(Cl)c1 ? t

Check this compound for inhibition at or above 10%: O=C1OC(NC(=O)c2ccccc2)C(N2CCOCC2)=C1Cl (stereo unspecified) f

Confirm if inhibition reported for the compound COc1ccc(C(=O)Nc2ncc3c(n2)-c2ccccc2CC3)cc1 is 10% or above. f

Could you verify whether the entry COC(=O)C1=C(N)Oc2cc(C)oc(=O)c2C1c1cccnc1 (stereo unspecified) shows inhibition of no less than 10%? t

###

Target: Cytochrome P450 2C9 (Homo sapiens) (UniProt P11712)
Sequence (P11712 whole entry, looked up): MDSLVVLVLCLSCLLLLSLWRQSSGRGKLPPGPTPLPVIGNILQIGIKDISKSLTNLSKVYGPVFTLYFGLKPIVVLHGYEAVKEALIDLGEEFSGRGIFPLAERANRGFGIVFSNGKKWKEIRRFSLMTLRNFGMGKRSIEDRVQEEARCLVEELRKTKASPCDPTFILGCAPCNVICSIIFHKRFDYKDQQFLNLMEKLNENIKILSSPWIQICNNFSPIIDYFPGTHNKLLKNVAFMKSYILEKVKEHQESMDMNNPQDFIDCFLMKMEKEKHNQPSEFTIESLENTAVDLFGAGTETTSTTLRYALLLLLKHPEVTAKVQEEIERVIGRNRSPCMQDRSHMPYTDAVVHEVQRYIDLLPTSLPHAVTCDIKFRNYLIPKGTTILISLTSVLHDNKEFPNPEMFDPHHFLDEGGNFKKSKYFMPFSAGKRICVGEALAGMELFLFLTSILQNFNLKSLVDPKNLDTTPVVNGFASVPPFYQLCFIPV
Assay: blockers of cytochrome P450 2C9 activity – biochemical, luminescence, ADME assay, primary screen (AID 777)
Settings: CYP2C9 Supersomes, luciferin-H conversion, at 5 µM, stronger effect = higher value
Out of some 96,000 compounds screened, about 19,000 (20%) were called active. Only a sample is shown.
Decide using inhibition: a value greater than or equal to 10% is Yes, a smaller one is No.

Decide: is the reported value of inhibition for O=C(COc1ccccc1)NCc1ccc2c(c1)OCO2 equal to or greater than 10%? Yes

Hi, just wondering whether O=C(CN(Cc1ccccc1)C(=O)c1ccc2c(c1)OCCO2)NCc1ccc2c(c1)OCO2 shows inhibition of 10% or higher. Yes

State whether the measured inhibition reaches 10%, counting equality as reaching it, for CC(=O)Oc1cc2c(C(=O)NCCN3CCOCC3)c(C)oc2c2ccccc12 Yes

Dear colleague, could you confirm whether CCCCNC(=O)OC(C)CNC(=O)OC (stereo not given) has inhibition at or above 10%? No

Reported inhibition reaches at least 10% for COc1ccc(-c2cc(C3CCN(c4ncccc4[N+](=O)[O-])CC3)[nH]n2)cc1 ? Yes

Identify whether the reported inhibition of the following molecule is 10% or greater: O=C(NCCc1ccc2c(c1)OCCO2)c1cc2ccccc2o1 Yes

Hi team, for CCOc1ccccc1C1NC(=O)NC(C)=C1C(=O)OCc1ccco1 (stereo not given) , is the recorded inhibition at or above 10%? Yes

Can CCOC(=O)N1CCN(CC(=O)c2ccc3c(c2)CCN3)CC1 be said to have inhibition at or above 10%? No

Is it the case that Cc1ccc(-c2csc3nnc(SCC(=O)NCc4ccco4)n23)cc1 has inhibition reaching or exceeding 10%? Yes

Given O=C1c2ccncc2C(=O)N1C1CCCCC1 , state whether its inhibition is at least 10%. Yes

# bool: inhibition of C/C(=N\NC(=O)c1ccccc1C)c1ccc(N2CCOCC2)cc1 >= 10% No

Entry O=C(Cn1nnc(-c2ccc3c(c2)OCO3)n1)NCc1ccco1 : is its inhibition no less than 10%? Yes

Determine whether measured inhibition meets or exceeds 10% for COc1cccc(NC(=O)c2nn(C34CC5CC(CC(C5)C3)C4)cc2[N+](=O)[O-])c1 Yes

Hi team, for CCOc1ccccc1-n1c(SCC(=O)N2CCCC2)nnc1-c1ccoc1C , is the recorded inhibition at or above 10%? No

Is reported inhibition greater than or equal to 10% here: CN1CCN(c2cc(=O)n(-c3ccc(Cl)cc3)c(=O)[nH]2)CC1 No

Form field: inhibition at least 10%? Entry: O=C(Cn1nnc(-c2ccccc2)n1)NCc1ccccc1 No

Is inhibition for COc1ccc(-c2oc(/N=C/N3CCCC3)c(C#N)c2-c2ccc(OC)cc2)cc1 at or above 10%? Yes

# check: inhibition of O=C(CC1Oc2ccccc2NC1=O)NCCCN1CCN(Cc2ccccc2)CC1 (stereo not given) is greater than or equal to 10% No

Check this molecule for inhibition at or above 10%: COc1ccc(-n2c(SCC(=O)NCc3cccs3)nnc2-c2ccoc2C)cc1 Yes

Identify whether the reported inhibition of the following molecule is 10% or greater: O=C(O)C1CCCCC1C(=O)Nc1ccc(Cl)cc1 (stereo not given) No

Tell me whether inhibition is at least 10% here: CC1CCCC(C)N1C(=O)CN1CCN(c2nc(-c3ccc(F)cc3)cs2)CC1 (stereo not given) No

hey, is inhibition for this one >= 10%? CCOC(=O)c1c(NC(=O)/C=C/c2ccco2)sc(C)c1C No

Answer whether inhibition of C/C(CC(O)(/C=N/O)c1ccccc1)=N\O (stereo not given) is greater than or equal to 10%. No

State whether the measured inhibition reaches 10%, counting equality as reaching it, for O=C(CCS(=O)(=O)c1cccc2nonc12)NCCc1ccccc1Cl Yes

Does the reported inhibition for COc1ccc(N(CC(=O)NC2CCCCC2)S(=O)(=O)c2c(C)[nH]c(=O)[nH]c2=O)cc1 fall at or above the 10% mark? Yes

Is inhibition at least 10%? Consider O=C(Cn1nnc(-c2ccccc2)n1)NCc1ccc2c(c1)OCO2 Yes

API: above_or_equal(metric=inhibition, cutoff=10%) for item COc1cccc(OC)c1C(=O)Nc1ccc(N2CCCCC2)cc1 Yes

Determine whether this molecule has inhibition no lower than 10%: O=c1[nH]c(-c2ccccc2)c(-c2ccccc2)[nH]1 Yes

Threshold query (inhibition >= 10%) on O=c1[nH]c2ccccc2n2c(-c3ccccc3)nnc12 Yes

Reported inhibition reaches at least 10% for CCOC(=O)N1CCN(C(=O)CSc2nnc(-c3c[nH]c4ccccc34)n2CCOC)CC1 ? Yes

Is reported inhibition greater than or equal to 10% here: O=C(CSc1nnc(-c2ccco2)n1-c1ccccc1)NCCc1ccccc1 Yes

Could you please find out whether CCCCSc1nc2c(c(=O)n1CC)SC(C)C2 (stereo not given) has inhibition that meets 10% or exceeds it? Yes

Given the entry Cc1ccc(-n2c(SCC(=O)Nc3ccc4c(c3)OCO4)nnc2-c2ccoc2C)cc1 , answer whether its inhibition meets or surpasses 10%. No

Is the recorded value of inhibition equal to or greater than 10% for this molecule? CC(=O)NC(Cc1ccc(F)cc1)C(=O)O (stereo not given) No

Kindly determine if inhibition recorded for COc1ccc(OCCCC(=O)Nc2nnc(C3CCCO3)s2)cc1 (stereo not given) is above or exactly 10%. Yes

hey, is inhibition for this one >= 10%? CCCN1Cc2cccc(C(=O)NCc3ccccc3)c2C1=O Yes

Check this molecule for inhibition at or above 10%: O=C(CC(Cc1ccccc1)C(=O)O)NCCc1ccc2c(c1)OCO2 (stereo not given) Yes

Is reported inhibition greater than or equal to 10% here: CCn1c(SCC(=O)Nc2ccc3c(c2)OCCO3)nc2c(c1=O)SC(C)C2 (stereo not given) Yes

Exam item: decide whether the reported inhibition for CCOc1ccccc1C(=O)NCc1ccco1 is at least 10%. No

Is the recorded value of inhibition equal to or greater than 10% for this molecule? CCOc1ccc(NC(=O)CSc2nc3c(c(=O)n2-c2ccccc2OC)SCC3)cc1 Yes

Please check the record O=C(CSc1nnc2scc(-c3ccc(F)cc3)n12)NCc1ccco1 and state if its inhibition is at or above 10%. Yes

Quick check: does O=[N+]([O-])c1cccc(-c2nnc3c4ccccc4c4ccccc4n23)c1 have inhibition greater than or equal to 10%? Yes

For this molecule, is measured inhibition 10% or higher? O=C(CSc1nnc(-c2cccs2)n1-c1ccccc1)NCc1ccco1 Yes

Reported inhibition at or above 10%? CCn1c(SCC(=O)Nc2ccc(OC)c(OC)c2)nnc1-c1c[nH]c2ccccc12 Yes

###

Target: Cytochrome P450 2C9 (Homo sapiens)
Experiment: blockers of cytochrome P450 2C9 activity – biochemical, luminescence, ADME assay, primary screen (AID 777)
Details: CYP2C9 Supersomes, luciferin-H conversion, at 5 µM
Out of some 96,000 compounds screened, about 19,000 (20%) were called active.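 How the source made its calls: active means blocking of liver enzyme CYP2C9 beyond about 50% at 5 µM (limit read from the data); inactive means the rest.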 These entries were drawn from the full list.
Choose the fitting class; nothing outside YES = active, NO = inactive is accepted.

In this assay, the call recorded for Cc1cc(=O)cc(C)[nH]1 was what? NO

In this assay, the call recorded for C/C(=N\c1nc2ccccc2n1C)c1cc(Cl)ccc1O was what? NO

# outcome recorded in this test, key = CCN1C(=O)/C(=C2\SC(N3CCCCC3)=NC2=O)c2ccccc21 NO

Call for entry CCCc1nnc(NC(=O)CN2C(=O)c3ccccc3S2(=O)=O)s1 : NO

What did the test return for COc1cc(OC)cc(C(=O)Nc2ccc(-c3nc4ccccc4o3)c(O)c2)c1 ? NO

# outcome recorded in this test, key = CC1CC2=C(CC1/C=N/NC(N)=S)C(C)(C)CCC2 (stereo unspecified) NO

In this assay, the call recorded for CCCCOc1ccc(Cl)cc1CSc1nncn1N was what? YES

What outcome does the record of this test show for NC(=NC(=O)c1ccccc1)C1=C(O)CCC1=O ? NO

For CC(C)CCNC(=O)CC1C(=O)N(Cc2ccccc2)C(C)c2nc3ccccc3n21 (stereo unspecified) , what call appears in the results of this test? YES

Could you please tell me the result logged for Cn1c(=O)cc(OCCCC(=O)N2CCN(Cc3ccc4c(c3)OCO4)CC2)c2ccccc21 in this assay? NO

Call for entry CCCCNC(=O)CCn1c(=S)[nH]c2cc3c(cc2c1=O)OCO3 : NO
